target: T1, Human B7H4 ECD (SV), splice variant, 10His_FLAG (human); assay: Octet BLI, hIgG1 on Protein G (n = 1)
T1 construct: also called B7-H4-SV
Property Label: Kd (nM)

{"Binder": "ZY0EOB-F05 human IgG1 (antibody, V domains shown) VH: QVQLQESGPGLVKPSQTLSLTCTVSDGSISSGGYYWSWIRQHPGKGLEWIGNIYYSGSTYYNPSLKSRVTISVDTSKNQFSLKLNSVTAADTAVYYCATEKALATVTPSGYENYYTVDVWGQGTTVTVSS VL: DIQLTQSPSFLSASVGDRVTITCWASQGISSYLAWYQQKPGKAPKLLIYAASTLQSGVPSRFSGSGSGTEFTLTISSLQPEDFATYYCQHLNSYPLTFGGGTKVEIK", "Property Label": "Kd", "Measured": 127}
{"Binder": "ZY0EQD-E02 human IgG1 (antibody, V domains shown) VH: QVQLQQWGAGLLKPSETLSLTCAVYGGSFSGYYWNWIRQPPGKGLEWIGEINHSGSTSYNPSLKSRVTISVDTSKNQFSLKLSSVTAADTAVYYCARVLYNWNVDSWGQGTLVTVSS VL: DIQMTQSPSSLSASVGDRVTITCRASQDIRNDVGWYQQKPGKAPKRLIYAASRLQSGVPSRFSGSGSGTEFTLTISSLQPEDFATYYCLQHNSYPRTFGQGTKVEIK", "Property Label": "Kd", "Measured": 834}
{"Binder": "ZY0EO5-E07 human IgG1 (antibody, V domains shown, also called ZY0E05-E07; E05-E07) VH: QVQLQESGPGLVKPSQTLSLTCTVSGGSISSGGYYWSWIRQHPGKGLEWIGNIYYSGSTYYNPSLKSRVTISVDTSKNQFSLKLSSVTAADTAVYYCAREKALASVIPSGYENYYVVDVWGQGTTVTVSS VL: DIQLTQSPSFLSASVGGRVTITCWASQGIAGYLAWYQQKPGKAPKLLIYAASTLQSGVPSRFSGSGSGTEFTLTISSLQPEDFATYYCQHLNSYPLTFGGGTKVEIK", "Property Label": "Kd", "Measured": 182}
{"Binder": "ZY0EPQ-E02 human IgG1 (antibody, V domains shown) VH: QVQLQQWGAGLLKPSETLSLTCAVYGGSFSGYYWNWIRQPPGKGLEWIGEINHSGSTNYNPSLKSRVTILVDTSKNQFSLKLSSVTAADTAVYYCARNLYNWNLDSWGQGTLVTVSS VL: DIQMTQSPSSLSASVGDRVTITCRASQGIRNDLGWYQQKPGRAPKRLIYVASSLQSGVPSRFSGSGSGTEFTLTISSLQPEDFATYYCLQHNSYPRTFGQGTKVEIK", "Property Label": "Kd", "Measured": 1030}

// data source = patent US20240239894A1
